// data source = patent US8026218

Molecular target: human δ opioid receptor (human, UniProt P41143 1-372)
Sequence (P41143 whole entry, stated change not applied): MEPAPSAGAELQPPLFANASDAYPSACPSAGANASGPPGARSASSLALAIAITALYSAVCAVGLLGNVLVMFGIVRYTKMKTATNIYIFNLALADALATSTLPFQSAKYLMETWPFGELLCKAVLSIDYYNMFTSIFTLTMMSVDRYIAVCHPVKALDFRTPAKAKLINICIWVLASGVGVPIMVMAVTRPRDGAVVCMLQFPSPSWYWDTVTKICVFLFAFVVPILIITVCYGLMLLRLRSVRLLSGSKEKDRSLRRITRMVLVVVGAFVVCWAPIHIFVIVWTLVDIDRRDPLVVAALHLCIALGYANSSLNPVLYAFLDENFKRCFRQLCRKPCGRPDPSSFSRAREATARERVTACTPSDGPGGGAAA
Test: cell-based or functional assay
Bridge positions count the residues as written; N and C are the ends. Square brackets hold non-standard residues; d marks the D form. Ends that are not written are not given here. * marks the point of attachment. NH(3,5-(CF3)2-benzyl) = FC(F)(F)c1cc(CN*)cc(C(F)(F)F)c1; Dmt = Cc1cc(O)cc(C)c1C[C@H](N)C(=O)O; Nle = CCCC[C@H](N)C(=O)O; NHBn = c1ccc(CN*)cc1; OBn = c1ccc(CO*)cc1
Classify: class 1 when GTP binding hDOR EC50 is strictly less than 0.5 nM; class 0 when GTP binding hDOR EC50 is not.

Y[dA]GFMPLW-{NH(3,5-(CF3)2-benzyl)} [TyrDAlaGlyPheMetProLeuTrpNHBn(CF3)2 (TY027)] ... class 0
Y[dA]GFSPLW-{NH(3,5-(CF3)2-benzyl)} (not fully specified (residue 5); printed as TyrDAlaGlyPheSer(OGlu)ProLeuTrpNHBn(CF3)2) [TyrDAlaGlyPheSer(OGlu)ProLeuTrpNHBn(CF3)2 (TY042)] ... class 0
[Dmt][dA]GFMPLW-NHBn [DmtDAlaGlyPheMetProLeuTrpNHBn (TY034)] ... class 1

q: Just wondering, is GTP binding hDOR EC50 of Y[dA]GFFPLW-OBn [TyrDAlaGlyPhePheProLeuTrpOBn (TY014)] below 0.5 nM?
a: class 0

q: Strictly below 0.5 nM in GTP binding hDOR EC50? Y[dC]GF[Nle]PCW-{NH(3,5-(CF3)2-benzyl)} (disulfide 2-7, also called [D-Cys2, Cys7]TY027) [Tyr[DCysGlyPheNleProCys]TrpNHBn(CF3)2 (TY035)]
a: class 1
